Test Parameters: 318.5 K; Liquid; Transpiration method
Measurement Label: vapor or sublimation pressure (kPa)
API: value field is a number in kPa; no unit string.

Solved entries (count: 3):
• CCCCCCCCOC=O [octyl methanoate] = 0.1894
• CCCCCOC(=O)CC [pentyl propanoate] = 0.7195
• CCCCCCOC(=O)CC [hexyl propanoate] = 0.3993

Find the recorded vapor or sublimation pressure belonging to CCCCCCCCOC(=O)CC [octyl propanoate] and report it. 0.0387

====

Test Parameters: 303.3 K; Liquid; Transpiration method
Measurement Label: vapor or sublimation pressure (kPa)
API: value field is a number in kPa; no unit string.

Solved entries (count: 5):
- CCCCCCOC=O [hexyl methanoate]: 0.5448
- CCCCCCCCOC(=O)CC [octyl propanoate]: 0.01129
- CCCCCOC(=O)CC [pentyl propanoate]: 0.2789
- CCCCCOC(C)=O [pentyl ethanoate]: 0.658
- CCCCCOC=O [pentyl methanoate]: 1.571

API: the following record is the query input.
Find the recorded vapor or sublimation pressure belonging to CCCCCCCOC=O [heptyl methanoate] and report it. 0.183
